experiment: self-splicing fitness, log relative to wild type (ln ratio); higher = more splicing; Tetrahymena group I intron in knt gene, E. coli kanamycin selection, DiMSum; sequences stand for … in CUCUCU…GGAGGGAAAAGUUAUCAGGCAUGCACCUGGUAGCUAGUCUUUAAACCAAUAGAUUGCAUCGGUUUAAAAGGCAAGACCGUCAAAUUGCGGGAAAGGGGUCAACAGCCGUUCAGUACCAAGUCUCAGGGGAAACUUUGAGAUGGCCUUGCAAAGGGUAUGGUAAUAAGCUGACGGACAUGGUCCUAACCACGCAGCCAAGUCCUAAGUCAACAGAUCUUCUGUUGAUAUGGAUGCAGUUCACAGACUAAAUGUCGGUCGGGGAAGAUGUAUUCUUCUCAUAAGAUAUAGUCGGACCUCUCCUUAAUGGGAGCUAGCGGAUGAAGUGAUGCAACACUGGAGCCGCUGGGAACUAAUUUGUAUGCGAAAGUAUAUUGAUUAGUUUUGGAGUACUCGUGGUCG; details: 37 °C;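 further: selection with 25 µg/mL kanamycin versus none on LB agar overnight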
Please respond with reported self-splicing fitness (ln) for every item in the list.
One number for each entry.

A selection of reference data follows.
query-sequence: UCAGAGCAAUAUUACGUUUA
self-splicing fitness (ln): -2.6
--
query-sequence: CCCGAGCAAUAUUACGACGU
self-splicing fitness (ln): -0.954
--
query-sequence: CGCGAGCAAUAUUACGCUUA
self-splicing fitness (ln): -1.97

Please supply self-splicing fitness (ln) for each of the following items, keeping them in order.
1. UAUGAGCAAUAUUACGACUG
2. UGACAGCAAUAUUACGUAUC
3. GUUGAGCAAUAUUACGCCGU
4. CGCGAGCAAUAUUACGUUCA
5. CUGCAGCAAUAUUACGAAUU
6. UUCGAGCAAUAUUACGCCAC

1. -0.328
2. -2.57
3. -0.768
4. -1.5
5. -3.18
6. -1.4

###

assay: self-splicing fitness, log relative to wild type (ln ratio); higher = more splicing; Tetrahymena group I intron in knt gene, E. coli kanamycin selection, DiMSum; sequences stand for … in CUCUCU…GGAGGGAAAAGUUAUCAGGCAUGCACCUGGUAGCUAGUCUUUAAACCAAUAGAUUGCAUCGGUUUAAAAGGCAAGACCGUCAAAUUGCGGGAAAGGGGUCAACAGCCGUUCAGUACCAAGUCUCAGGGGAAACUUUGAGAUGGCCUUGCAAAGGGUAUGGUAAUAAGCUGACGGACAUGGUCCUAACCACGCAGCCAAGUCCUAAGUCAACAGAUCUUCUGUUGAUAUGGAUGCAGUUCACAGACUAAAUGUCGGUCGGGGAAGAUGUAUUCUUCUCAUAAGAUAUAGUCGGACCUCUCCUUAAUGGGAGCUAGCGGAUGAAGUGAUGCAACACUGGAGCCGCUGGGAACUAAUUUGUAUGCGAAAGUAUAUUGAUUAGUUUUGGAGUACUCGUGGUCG; conditions: 30 °C
observation-type: self-splicing fitness (ln)
Numbers only.

A selection of reference data follows.
query-sequence: CCCUAGCAAUAUUACGGCCA
reading: -2.88

query-sequence: UUCUAGCAAUAUUACGGUUC
reading: -2.74

query-sequence: ACAGAGCAAUAUUACGAGGG
reading: -2.31

Please supply self-splicing fitness (ln) for each of the following items, keeping them in order.
1. CUUAAGCAAUAUUACGCACU
2. UCAGAGCAAUAUUACGGCUC

1: -2.93; 2: -4.58

Please supply self-splicing fitness (ln) for each of the following items, keeping them in order.
1. UAAUAGCAAUAUUACGUCCU
2. GUGGAGCAAUAUUACGCUUC

[-0.907, -3.26]

Please supply self-splicing fitness (ln) for each of the following items, keeping them in order.
1. AUAAAGCAAUAUUACGCUCU
2. CACAAGCAAUAUUACGGAAG
3. CACUAGCAAUAUUACGCAUG
4. GACUAGCAAUAUUACGGGGA

1: 0.0815; 2: -0.736; 3: -1.95; 4: -2.06

Please supply self-splicing fitness (ln) for each of the following items, keeping them in order.
1. AUCAAGCAAUAUUACGCUGU
2. GUAAAGCAAUAUUACGCCAU
3. AAGCAGCAAUAUUACGCGCU
4. CUACAGCAAUAUUACGAAGA

-2.62
-1.89
-2.53
-3.21

Please supply self-splicing fitness (ln) for each of the following items, keeping them in order.
1. UUUUAGCAAUAUUACGUCAU
2. ACCGAGCAAUAUUACGAGGU

-3
-2.42
